Conditions: in water, 302.15 K
REPORTED_METRIC: solubility (mole fraction)
Lab note: jot the number down without any unit.

Which solubility (mole fraction) value belongs to O=C(O)[C@@H]1Cc2ccccc2N1 ?
0.000335

---

Conditions: in ethanol, 333.25 K
REPORTED_METRIC: solubility (mole fraction)
Lab note: jot the number down without any unit.

Which solubility (mole fraction) value belongs to O=C(O)[C@@H]1Cc2ccccc2N1 ?
0.0159

---

Settings: in methanol, 292.75 K
REPORTED_METRIC: solubility (mole fraction)
Lab note: jot the number down without any unit.

Which solubility (mole fraction) value belongs to O=C(O)[C@@H]1Cc2ccccc2N1 ?
0.00647

// provenance: BigSolDB 2.1
